# TEST SUMMARY: NOVARTIS: Cytotoxicity against human hepatocellular carcinoma cell line (Huh7)
# Type: toxicity, cell-based, Huh-7
# MEASUREMENT SETUP: Huh7 cells (hepatocellular carcinoma cell line)
For each entry below, report its CC50 value.

Reported CC50 of CN(C)c1ccc(/C=C/c2nc(=O)c3ccccc3o2)cc1 : > 10 µM

What the record says about CC(=NNC(=O)c1ccc([N+](=O)[O-])cc1)c1cccc([N+](=O)[O-])c1 : CC50 is > 10 µM

Looking up CCc1ccc2ncc(C(=O)OCCOC)c(O)c2c1 , I see its CC50 listed as > 100 µM

The molecule identified as O=C1c2cc([N+](=O)[O-])ccc2-n2c1nc1ccccc1c2=O registered its CC50 at > 10 µM

Reported CC50 ( CCCCCC[n+]1ccccc1C=Cc1ccc(N(C)C)cc1 ) = 1.6 µM

For reference, reported CC50 for CN1CCN(C(c2ccco2)c2sc3ncnn3c2O)CC1 (stereo unspecified) stands at > 10 µM

molecule CCOc1ccc(C(=O)C(C)[n+]2cc(-c3ccc(OC)cc3)n3c2CCC3)cc1 (stereo unspecified) , CC50 observed: 33.2 µM

In plain terms, CCOC(=O)CN(N=O)C1=C(N2CC2)C(=O)c2ccccc2C1=O has a documented CC50 of 25.4 µM

Sure, the documented CC50 for CCOC(=O)c1nnn(-c2nonc2-n2cccc2)c1CN1CCCCC1 is > 100 µM

Lab book: CC50 of Cc1ccc(CNC(=O)C2CNCC2c2ccc(C(F)(F)F)cc2)cc1 (stereo unspecified) noted as > 10 µM

Measured CC50 of COc1ccc(C(=O)ON=C(N)Cc2ccc(Cl)cc2Cl)cc1[N+](=O)[O-] : > 100 µM

The value of CC50 measured for the molecule COC(=O)c1ccccc1NC(=O)CN(C)c1nc(-c2ccc(OC)cc2)no1 turned out to be > 10 µM

Please fill in: CC50 reported for O=c1c2ccccc2nc2n1CCN2Cc1ccc(Cl)cc1 = > 100 µM

Record summary for CCOc1ccc(Nc2cc(=O)oc3ccccc23)cc1 : reported CC50 = > 100 µM

For COc1ccc(/C=C/C(=O)Nc2ccc3nc(N4CCN(C)CC4)cc(C)c3c2)cc1OC the molecule record lists CC50 as > 10 µM

In plain terms, CN(C)CCNC(=O)c1c[nH]c2ccc(S(=O)(=O)N3CCc4ccccc43)cc2c1=O has a documented CC50 of > 10 µM

According to the records, this molecule O=C(Nc1ccc(Nc2cc([N+](=O)[O-])ccc2O)c2c1C(=O)c1ccccc1C2=O)c1ccccc1 displays CC50 of > 10 µM

// field: CC50; key: CC1=C(CC(=O)c2cccc([N+](=O)[O-])c2)C(=O)c2ccccc2C1=O ; value = 4.69 µM

Lab note: measured CC50 of COc1cccc(-c2ccc(O)c(CN3CCCCC3)c2)n1 was > 95.8 µM

Kindly note the recorded CC50 for O=C(Nc1cccnc1)c1cc(-c2cccnc2)nc2ccc(Cl)cc12 , which is > 100 µM

The recorded CC50 for entry O=C(COc1ccccc1)NC(c1ccc([N+](=O)[O-])cc1)c1cc(Cl)c2cccnc2c1O (stereo unspecified) equals > 80.6 µM

# molecule COc1ccc(OC)c(CN2CCC3(CC2)CC3C(=O)NCCc2ccccc2OC)c1 (stereo unspecified) ; its CC50 = > 100 µM

The measured CC50 associated with COc1ccc(Nc2nc(NN=Cc3cc(Br)c(O)cc3O)nc(Nc3ccc([N+](=O)[O-])cc3)n2)cc1 reads 9.58 µM

The recorded CC50 for entry Cc1cc2c(cc1C)N(C(=O)c1ccccc1)C(C)(C)c1ssc(=S)c1-2 equals > 100 µM

Record CCCCCc1ccc(OCCCC[n+]2cccc(C)c2C)c(CCCCC)c1 . Reported CC50: 3 µM

What the record says about O=C(Nc1ccc(-c2nc3ccc(-c4nc5ccc(NC(=O)c6ccccc6[N+](=O)[O-])cc5[nH]4)cc3[nH]2)cc1)c1ccccc1[N+](=O)[O-] : CC50 is > 10 µM

Input CN(CCCNc1nc2ccccc2c2nc(-c3cccnc3)nn12)Cc1ccccc1 . Output CC50: > 10 µM

Noted for CCCCCCCCNC(C)C(O)c1ccc(SC(C)C)cc1 (stereo unspecified) [SULOCTIDIL] : its CC50 reads 10.5 µM

Reported CC50 for COc1ccc(NC(=O)Cn2ncc3ccccc32)cc1OC was > 100 µM

For this molecule ( O=C1[C@@H]2CCCN2C(=O)C(c2ccc(Oc3ccccc3)cc2)N1CCc1ccccn1 (stereo partly specified) ), measured CC50 is > 10 µM

Input COc1ccc(C(OCC(=O)N2CCN(Cc3ccccc3)CC2)c2ccccc2)cn1 (stereo unspecified) . Output CC50: > 10 µM

For this molecule ( CCOC(=O)N1CCN(C(=O)CCCCn2c(=S)[nH]c3ccsc3c2=O)CC1 ), measured CC50 is > 10 µM

Lookup result for CCC(Oc1ccc(C(C)(C)CC)cc1C(C)(C)CC)C(=O)Nc1ccc(Cl)c([N+](=O)[O-])c1 (stereo unspecified) ; measured CC50: > 10 µM

Recorded CC50 (molecule COc1cc(C(=O)Nc2nnc(-c3ccccc3)o2)cc(OC)c1OC ): > 100 µM

For record COC(=O)c1ccc(NC(=O)CSc2nc3cc4c(cc3cc2C#N)OCCO4)cc1 the listed CC50 is > 10 µM

Item: O=[N+]([O-])c1ccc(NCCNc2nc(N3CCCC3)nc3ccccc23)cc1 | CC50: 19.2 µM

The molecule identified as CN[C@H]1C[C@@H]2O[C@](C)([C@H]1O)n1c3ccccc3c3c4c(c5c6ccccc6n2c5c31)C(=O)NC4 registered its CC50 at 0.0323 µM

The reported CC50 of the molecule Cc1nc(-c2nc3c(s2)CN(C(=O)c2ccncc2)CC3)cs1 was > 10 µM

Entry Cc1n[nH]c2c1C(c1ccc([N+](=O)[O-])cc1)N(c1ccc(Br)cc1)C2=O (stereo unspecified) — recorded CC50 = > 100 µM

Note to self: CC50 recorded for Oc1ncnc2c1C(c1ccccc1)c1c(O)ncnc1O2 was > 8.83 µM

The recorded CC50 for Cc1ncc(CCCCN(C)C)c2c1[nH]c1ccccc12 is 18.8 µM

====

# TEST SUMMARY: NOVARTIS: Cytotoxicity against human hepatocellular carcinoma cell line (Huh7)
# Type: toxicity, cell-based, Huh-7
# MEASUREMENT SETUP: Huh7 cells (hepatocellular carcinoma cell line)
Answer each item with its documented CC50.

Consider CCc1ccccc1N=C1c2c(cccc2[N+](=O)[O-])C(=O)C1C(C)=O (stereo not given) . Its measured CC50 is > 100 µM

# CC50 of CN(CCCNc1ccnc2cc(Cl)ccc12)C(=O)CSc1ccccc1 = > 10 µM

c1ccc2cc3c(N4CCN(CCN5CCN(c6ccnc7cc8ccccc8cc67)CC5)CC4)ccnc3cc2c1 yielded CC50 of > 100 µM

Just so you know, measured CC50 for COc1cccc(CN2CCN(C(=O)c3c(C)noc3C)[C@@H](C)C2)c1 came out at > 10 µM

The value of CC50 measured for the compound COc1ccc2cc3[n+](cc2c1OC)CCc1cc2c(cc1-3)OCO2 [BERBERINE CHLORIDE] turned out to be > 100 µM

====

# TEST SUMMARY: NOVARTIS: Cytotoxicity against human hepatocellular carcinoma cell line (Huh7)
# Type: toxicity, cell-based, Huh-7
# MEASUREMENT SETUP: Huh7 cells (hepatocellular carcinoma cell line)
REPORTED PROPERTY: CC50

// recorded CC50 for CS(=O)(=O)c1cnc2ncnn2c1C1CCCN(C(=O)c2ccccn2)C1 (stereo not given) : > 10 µM

So, CCOc1ccc(C=NNC(=O)CCn2nnc3ccccc32)cc1 ? Its CC50 was > 13.6 µM

Measured CC50, Cc1cccc(OCC(=O)Nc2cccc(NC(=O)COc3cccc(C)c3)n2)c1 : > 100 µM

Measured CC50, CN1CCc2cc3c(c4c2C1Cc1ccccc1-4)OCO3 (stereo not given) : 22.3 µM

CC50 measured on COc1ccc(Nc2ncnc3[nH]c(-c4cccc([N+](=O)[O-])c4)cc23)cc1 = > 100 µM

====

# TEST SUMMARY: NOVARTIS: Cytotoxicity against human hepatocellular carcinoma cell line (Huh7)
# Type: toxicity, cell-based, Huh-7
# MEASUREMENT SETUP: Huh7 cells (hepatocellular carcinoma cell line)
REPORTED PROPERTY: CC50

Memo: CCOc1ccc2[nH]c(=O)c(CN(CCc3ccccc3)C(=O)c3cnccn3)cc2c1 , reported CC50: > 10 µM

What the record says about CCc1c(C)nc2cc(-c3cc(OC)cc(OC)c3)nn2c1NCCCn1ccnc1 : CC50 is > 100 µM

The recorded CC50 for entry Fc1ccc(CCNc2ncnc3c2[nH]c2ccccc23)cc1 equals 12 µM

Form field CC50, entry CC(c1nc2ccccc2c(=O)n1-c1ccccc1Cl)N(Cc1ccccc1)C(=O)Nc1cccc(Br)c1 (configuration not stated) : > 10 µM

Record summary for CC(C)(C)C1=NN(CC(=O)NCCc2c[nH]cn2)C(=O)c2cc3ccccc3n2C1 : reported CC50 = > 13.2 µM

Entry COc1ccc(C[n+]2cc(-c3ccc(Cl)cc3)n3ccccc32)cc1 ; CC50 = > 100 µM

Record CCCCc1c(C)nc2ccc(Br)cc2c1O . Reported CC50: > 100 µM

// recorded CC50 for COc1cc(C(=O)Nc2c3c(nn2-c2cc(C)cc(C)c2)CSC3)cc(OC)c1OC : > 1.07 µM

Per the record, CN1[C@@H](C(=O)Nc2ccc3c(c2)OCO3)C[C@@H](c2ccc(F)cc2)NS1(=O)=O has CC50 of > 10 µM

For reference, reported CC50 for Cc1cc(C)c(S(=O)(=O)N2CCCC2CNC(=O)c2cccc([N+](=O)[O-])c2)c(C)c1 (configuration not stated) stands at > 100 µM

For record c1cc2cc3ccc(OCCN4CCCCC4)cc3nc2cc1OCCN1CCCCC1 the listed CC50 is > 10 µM

For this compound ( Clc1ccc(C2Nc3ccc4ccccc4c3C3C=CCC32)c(Cl)c1 (configuration not stated) ), measured CC50 is > 10 µM

Lab book: CC50 of COc1cc(C(Nc2ccccn2)c2ccc3cccnc3c2O)cc(Br)c1OC (configuration not stated) noted as > 35 µM

Field CC50 (entry COCCOC(=O)C1=C(C)NC2=C(C(=O)CC(c3ccc(OC)c(OC)c3)C2)C1c1ccccc1F (configuration not stated) ) reads > 100 µM

response.value for CCCN(Cc1cc(OC)c2c(c1)OCO2)CC1CC1 (field: CC50) = > 10 µM

Consider N=c1n(Cc2ccccc2)c2ccccc2n1CC(O)c1ccc(Cl)c(Cl)c1 (configuration not stated) . Its measured CC50 is 6.59 µM

The value of CC50 measured for the compound COc1cc2c(cc1C=C(C#N)c1cccc(C)c1)OCO2 turned out to be > 100 µM

The recorded CC50 for entry CCOc1cc(C(=O)Nc2ccc(-c3nc4ccccc4[nH]3)cc2)cc(OCC)c1OCC equals 40.1 µM

// CC50 lookup, compound = CCOC(=O)C1=C(C)NC2=C(C(=O)CC(C)(C)C2)C1c1ccc(Cl)cc1 (configuration not stated) , result: > 100 µM

Lab note: CCCC(=O)Oc1ccccc1-c1nc2ccccn2c1NC(C)(C)CC(C)(C)C gave CC50 of 1.96 µM

// field: CC50; key: Cc1ccc2c(C)nc(NC(=N)N)nc2c1 ; value = 48.2 µM

Per the record, CCOC(=O)c1cnn(-c2ccnc3cc(Cl)ccc23)c1CNC(C)c1ccco1 (configuration not stated) has CC50 of 38.9 µM

The compound C[N+]1(CCOC(=O)CCC(=O)OCC[N+]2(C)CCCCCC2)CCCCCC1 showed CC50 equal to > 10 µM

Note to self: CC50 recorded for Cc1cc(CNC(=O)CC2C(=O)NCCN2Cc2ccccc2C(F)(F)F)nn1C (configuration not stated) was > 10 µM

For record Cn1c(=O)c2c(nc3n(CCCO)c(C45CC6CC(CC(C6)C4)C5)cn23)n(C)c1=O the listed CC50 is > 10 µM

# CC50 (compound: CN(C)C(=O)NCCCCNc1ccnc2cc(Cl)ccc12 ) is > 10 µM

Notebook: COc1cc(Cl)c(C)cc1NC(=O)C1c2ccccc2C(=O)N(CC(C)C)C1c1cccs1 (configuration not stated) , CC50 read as > 100 µM

Value of measured CC50 for the entry COc1ccc2c(c1)N(C(=O)CSc1nc3ccccc3o1)C(C)(C)c1ssc(=S)c1-2 : > 100 µM

Form: compound = CCC(C(=O)N(C)CCCNc1ccnc2cc(Cl)ccc12)c1ccccc1 (configuration not stated) ; CC50 = 6.17 µM

Lab book: CC50 of CN1CCc2c(sc3c2C(=O)NC(c2ccc(O)cc2)N3)C1 (configuration not stated) noted as 33.5 µM

The measured CC50 associated with COc1ccc(C(=O)N(CCCC(C)Nc2cc(OC)cc3cccnc23)Cc2ccccc2OC)cc1 (configuration not stated) reads 5.18 µM

Kindly note the recorded CC50 for CN(C)C=Nc1nn(C)cc1C(=O)Nc1ccc(F)c(Cl)c1 , which is > 100 µM

Record summary for O=C1C2C(C(=O)N1Cc1ccccc1)C1(c3ccccc3)C(=O)C2(c2ccccc2)C(c2ccccc2)=C1c1ccccc1 (configuration not stated) : reported CC50 = > 100 µM

Lab book: CC50 of CCCCCCCCCCCCOCCCNC(=O)c1cccc(N)c1 noted as > 10 µM

Item: CCc1c(C)c(C#N)c2nc3ccccc3n2c1Nc1ccc(C)c(Cl)c1 | CC50: > 100 µM

Short answer for Cc1nc(N2CCC(C)CC2)c2c(C)c(C(=O)Nc3ccc(C(F)(F)F)cc3)sc2n1 : CC50 was > 100 µM

Lab note: COc1cc(NC(C)CCCN(Cc2ccc(OC)c(OC)c2)C(=O)Nc2cccc(Cl)c2Cl)c2ncccc2c1 (configuration not stated) gave CC50 of 6.29 µM

Briefly, CC50 measured for COc1ccc(NC(=O)C=Cc2ccccc2Cl)cc1 : > 100 µM

For CC(=O)N1CCNC1=Nc1c(Cl)nc(C)nc1Cl the compound record lists CC50 as > 10 µM

Recorded CC50 (compound N=C1NC(=O)C(=CC=Cc2ccc([N+](=O)[O-])o2)S1 ): 7.21 µM

The reported value for O=C(c1ccc(F)cc1Cl)N1CCN(c2nc(-c3cccs3)ns2)CC1 in terms of CC50 is > 10 µM

compound COc1ccc(CN(Cc2cc3cccc(C)c3nc2N2CCCC(O)C2)C(=O)c2ccc(OC)c(OC)c2)cc1 (configuration not stated) , CC50 observed: > 100 µM

Entry source: ChEMBL document CHEMBL1156829
